- TEST_DESCRIPTION: Second PK study: daily oral dose for 5 days, two formulations
- Type: in vivo, female Swiss Albino mice
- MEASUREMENT_SETUP: female, Swiss Albino, mouse, plasma, po, 7.5 mg/kg, day 5, daily oral 7.5 mg/kg, Formulation 2, female mice, AUC0-24 h
QUANTITY_KIND: AUC(0-t) (ng·h/mL)
The figure you give is taken to be in ng·h/mL; do not add the unit.

// query So what's the measured AUC(0-t) for this one? COc1cc(N2CCNCC2)ccc1Nc1ncc2c(n1)-n1ccc(C(=O)Nc3c(C)cccc3C)c1CC2 [compound of formula (I)]
// result 607
